assay.system: T1, 4H918-bH
T1 chain: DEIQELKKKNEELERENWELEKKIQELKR
method.summary: two-hybrid library CCNG1;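 note: natural log of median RNA to DNA barcode read ratio; higher means stronger binding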
readout.name: interaction score

binder	readout.name	data.value
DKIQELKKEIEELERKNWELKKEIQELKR [4H2618-bH]	interaction score	0.911
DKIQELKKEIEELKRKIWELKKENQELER [4H2667-bH]	interaction score	-2.64
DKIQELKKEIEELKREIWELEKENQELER [4H2627-bH]	interaction score	-0.493
DKNQELKKKIEELEREIWELEKENQELER [4H3843-bH]	interaction score	-2.64

[I] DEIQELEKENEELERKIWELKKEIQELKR [4H170-bH]
[II] DKNQELKKEIEELERENWELEKKIQELKR [4H3606-bH]
Looking only at measured interaction score, which entry is lower, I or II ? Answer with the label corresponding to your selection.
II

[1] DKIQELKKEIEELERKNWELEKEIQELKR [4H2610-bH]
[2] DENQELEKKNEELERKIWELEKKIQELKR [4H1446-bH]
Looking only at measured interaction score, which entry is lower, 1 or 2 ? Answer with the label corresponding to your selection.
2

[a] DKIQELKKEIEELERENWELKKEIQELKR [4H2586-bH]
[b] DKNQELEKEIEELKRKIWELEKKNQELER [4H3175-bH]
Which is greater in interaction score, the first item a or the second item b ? Answer with the label corresponding to your selection.
a
(a: -0.131, b: -1.69)

[P] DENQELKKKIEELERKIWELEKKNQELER [4H1831-bH]
[Q] DEIQELKKKNEELERENWELEKKIQELKR [4H918-bH]
[R] DEIQELKKKIEELERENWELKKKIQELER [4H797-bH]
Arrange the 3 entries by interaction score so the values rise. Returns: the labels arranged in the requested order.
P, R, Q
(P: -0.221, R: 0.24, Q: 1.26)
